Origin of measurements: the supplement of paper PMC13380429

test system: Vero E6 infected with SARS-CoV-2; experiment: inhibition of SARS-CoV-2 cytopathic effect; higher = more antiviral protection, active = above 15; settings: 8.33 nM; 48 h
Reported inhibition of SARS-CoV-2 cytopathic effect values are given for each entry in this list.
Please reply with the bare figure in % and do not write the unit itself.

QUERY: Tell us which inhibition of SARS-CoV-2 cytopathic effect value is on record for "Nc1nc2cc(-c3ccc4ncc(C(=O)N5CCOCC5)n4c3)ccc2o1"
RESULT: 5.87

QUERY: Return reported inhibition of SARS-CoV-2 cytopathic effect. Input compound: "OCc1ccccc1O[C@@H]1O[C@H](CO)[C@@H](O)[C@H](O)[C@H]1O"
RESULT: 2.34

QUERY: Query inhibition of SARS-CoV-2 cytopathic effect for "C#C[C@]1(O)CC[C@H]2[C@@H]3CCC4=CC(=O)CC[C@@H]4[C@H]3CC[C@@]21CC"
RESULT: -0.115

Next:
QUERY: Determine its reported inhibition of SARS-CoV-2 cytopathic effect: "C[C@H](NC(=O)c1sccc1OCc1ccc(Cl)cc1)c1ccccc1"
RESULT: -2.87

QUERY: Return inhibition of SARS-CoV-2 cytopathic effect for the following compound: "CCOc1cc2ncc(C#N)c(Nc3ccc(OCc4ccccn4)c(Cl)c3)c2cc1NC(=O)/C=C/CN(C)C"
RESULT: -2.36

QUERY: Look up and state reported inhibition of SARS-CoV-2 cytopathic effect for "COc1ccc(C(=O)c2c(C)n(CCN3CCOCC3)c3ccccc23)cc1"
RESULT: 2.8

====

system: Vero E6 infected with SARS-CoV-2; assay: inhibition of SARS-CoV-2 cytopathic effect; higher = more antiviral protection, active = above 15; conditions: 8.33 nM; 48 h
Documented inhibition of SARS-CoV-2 cytopathic effect across a set of compounds
Record the value in %, omitting the unit from your answer.

QUERY: Please indicate inhibition of SARS-CoV-2 cytopathic effect recorded for "CN1c2cc3c(cc2N=C(c2ccc(C(=O)O)cc2)c2ccccc21)C(C)(C)CCC3(C)C"
RESULT: 2.01

More entries:
QUERY: Retrieve inhibition of SARS-CoV-2 cytopathic effect measured for COc1ccc(CC(C)NCC(O)c2ccc(O)c(NC=O)c2)cc1 (stereo not drawn) [formoterol] and print it.
RESULT: 2.33

QUERY: Using known records, supply inhibition of SARS-CoV-2 cytopathic effect for CN[C@@H]1[C@@H](O)[C@@H](O[C@@H]2[C@@H](O)[C@H](O[C@H]3O[C@H](CN)[C@@H](O)[C@H](O)[C@H]3O)[C@@H](N)C[C@H]2NC(=O)[C@@H](O)CN)OC[C@]1(C)O [isepamicin]
RESULT: 1

QUERY: Note down inhibition of SARS-CoV-2 cytopathic effect recorded for CN1C(CSCC(F)(F)F)Nc2cc(Cl)c(S(N)(=O)=O)cc2S1(=O)=O (stereo not drawn) [polythiazide]
RESULT: 0.91

QUERY: Give me measured inhibition of SARS-CoV-2 cytopathic effect, please, for this compound: "O=C(Cc1cccc(OC(F)(F)F)c1)Nc1ccc(CCCCc2nnc(NC(=O)Cc3ccccn3)s2)nn1"
RESULT: -0.26

QUERY: Answer with the recorded inhibition of SARS-CoV-2 cytopathic effect for the compound listed here: "COc1cc2ncnc(Sc3nnc(C)s3)c2cc1OC"
RESULT: 0.72

QUERY: Read off the recorded inhibition of SARS-CoV-2 cytopathic effect for "CN(c1ncccc1CNc1nc(Nc2ccc3c(c2)CC(=O)N3)ncc1C(F)(F)F)S(C)(=O)=O"
RESULT: 0.22

QUERY: Identify measured inhibition of SARS-CoV-2 cytopathic effect associated with CCOC(=O)C1=C[C@@H](OC(CC)CC)[C@H](NC(C)=O)[C@@H](N)C1 [oseltamivir-phosphate]
RESULT: -6.65

====

system: Vero E6 infected with SARS-CoV-2; assay: inhibition of SARS-CoV-2 cytopathic effect; higher = more antiviral protection, active = above 15; details: 10000 nM; 48 h
Measure name: inhibition of SARS-CoV-2 cytopathic effect (%)
The answer is to be given in %; state only the numeric part.

Example results:
QUERY: Consider the compound "C=CC(=O)N1CCC(Oc2cc3c(Nc4ccc(Cl)c(Cl)c4F)ncnc3cc2OC)CC1" tested on Vero E6 infected with SARS-CoV-2; state its inhibition of SARS-CoV-2 cytopathic effect.
RESULT: -15.7

QUERY: State inhibition of SARS-CoV-2 cytopathic effect on Vero E6 infected with SARS-CoV-2. Entry: Cc1cc(CC(C)CC(C)(C)C)n(O)c(=O)c1 (centres undefined)
RESULT: -1.5

QUERY: Param request: inhibition of SARS-CoV-2 cytopathic effect | system Vero E6 infected with SARS-CoV-2 | item "Cc1c(NC(=O)N2CCOCC2)ccc2c1c1ccccc1n2C(C)C"
RESULT: 0.62

QUERY: Specify inhibition of SARS-CoV-2 cytopathic effect for "CCC1(CC)C(=O)NC(=O)N(C)C1=O" , system Vero E6 infected with SARS-CoV-2.
RESULT: 2.66

QUERY: Under Vero E6 infected with SARS-CoV-2: report inhibition of SARS-CoV-2 cytopathic effect of C[C@H](NCc1ccc(OCc2ccccc2F)cc1)C(N)=O [priralfinamide] .
RESULT: -1.48

QUERY: Please look at "c1ccc2c(c1)Sc1ccccc1N2C[C@H]1CN2CCC1CC2" and tell me its recorded inhibition of SARS-CoV-2 cytopathic effect on Vero E6 infected with SARS-CoV-2.
RESULT: -13.9

QUERY: Report inhibition of SARS-CoV-2 cytopathic effect on Vero E6 infected with SARS-CoV-2 for this entry: "CSc1ccc(C(=O)N[C@@H]2CCCC[C@@H]2NC(=O)CNC(=O)c2cc(C(F)(F)F)ccc2NC(=O)NC(C)C)cc1"
RESULT: 0.79

QUERY: Report inhibition of SARS-CoV-2 cytopathic effect under test system Vero E6 infected with SARS-CoV-2 for "CCOC(=O)c1ncn2c1[C@@H]1CCCN1C(=O)c1cc(OC)ccc1-2" .
RESULT: 0.55

Now look at this entry.
QUERY: Tell me its inhibition of SARS-CoV-2 cytopathic effect on Vero E6 infected with SARS-CoV-2: CC(SC(=O)c1cccs1)C(=O)NCC(=O)O (centres undefined)
RESULT: -1.74

====

test system: Vero E6 infected with SARS-CoV-2; experiment: SARS-CoV-2 infection rate relative to infected DMSO; higher = more infection, active = 60 or less; conditions: 24 h
Counter-ions that a name gives are not always drawn.
Measure name: SARS-CoV-2 infection rate (%)
Number only, in %; omit the unit.

Before answering, review these 10 worked examples.
QUERY: Entry CC1Oc2cc(cnc2N)-c2c(nn(C)c2C#N)CN(C)C(=O)c2ccc(F)cc21 (stereo unspecified) (10 µM) needs its SARS-CoV-2 infection rate filled in; supply it.
RESULT: 99.5

QUERY: Fill in SARS-CoV-2 infection rate for record CCn1c(-c2nonc2N)nc2cncc(C(=O)N3CC[C@H](N)C3)c21 (0.833333 µM)
RESULT: 87

QUERY: Consider the compound COC1=C2C[C@@H](C)C[C@H](OC)[C@H](O)[C@@H](C)/C=C(\C)[C@H](OC(N)=O)[C@@H](OC)/C=C\C=C(/C)C(=O)NC(=CC1=O)C2=O [geldanamycin] (0.833333 µM) and give its recorded SARS-CoV-2 infection rate.
RESULT: 98.5

QUERY: Annotate the compound CC1CS(=O)(=O)CCN1/N=C/c1ccc([N+](=O)[O-])o1 (stereo unspecified) [nifurtimox] (10 µM) with its measured SARS-CoV-2 infection rate.
RESULT: 102

QUERY: Please give the documented SARS-CoV-2 infection rate of CN(C)[C@@H]1C(O)=C(C(N)=O)C(=O)[C@@]2(O)C(O)=C3C(=O)c4c(O)ccc(Cl)c4[C@@](C)(O)[C@H]3C[C@@H]12 (10 µM)
RESULT: 102

QUERY: Please report SARS-CoV-2 infection rate for the following compound: OC(c1ccccc1)C1CCN(CCc2ccccc2)CC1 (stereo unspecified) (10 µM)
RESULT: 106

QUERY: Return reported SARS-CoV-2 infection rate. Input compound: O=C(O[C@H]1[C@H](OC(=O)c2cccnc2)[C@@H](OC(=O)c2cccnc2)[C@H](OC(=O)c2cccnc2)[C@@H](OC(=O)c2cccnc2)[C@H]1OC(=O)c1cccnc1)c1cccnc1 [inositol-hexanicotinate] (10 µM)
RESULT: 109

QUERY: Please give the documented SARS-CoV-2 infection rate of C[C@H](N)Cc1c[nH]cn1 [alpha-methylhistamine-dihydrobromide-(S)-(+)] (10 µM)
RESULT: 99

QUERY: Consider the compound NS(=O)(=O)c1cc(Cl)c(Cl)c(S(N)(=O)=O)c1 [diclofenamide] (10 µM) and give its recorded SARS-CoV-2 infection rate.
RESULT: 84.5

QUERY: Fill in SARS-CoV-2 infection rate for record Cc1c2oc3c(C)ccc(C(=O)N[C@@H]4C(=O)N[C@H](C(C)C)C(=O)N5CCC[C@H]5C(=O)N(C)CC(=O)N(C)[C@@H](C(C)C)C(=O)O[C@@H]4C)c3nc-2c(C(=O)N[C@@H]2C(=O)N[C@H](C(C)C)C(=O)N3CCC[C@H]3C(=O)N(C)CC(=O)N(C)[C@@H](C(C)C)C(=O)O[C@@H]2C)c(N)c1=O [dactinomycin] (10 µM)
RESULT: 109

Others:
QUERY: Query SARS-CoV-2 infection rate for CC1(COc2ccc(CC3SC(=O)NC3=O)cc2)CCCCC1 (stereo unspecified) [ciglitazone] (10 µM)
RESULT: 110
